measurement_notes: Plasma pharmacokinetics, 7 once-daily oral doses, healthy volunteers
Format: in vivo, human
assay_conditions: male, human, plasma, oral, 48 mg, Day 1, plasma, healthy volunteers; read-out: Tmax Median
measure: Tmax (h)
Give a bare numeral; the unit h is implied.

Data request, read-out Tmax, for Cc1ccc(C(=O)NNC(=O)c2c(C)cccc2Cl)cc1C#Cc1cnc2ccccc2c1 2.8

###

measurement_notes: Plasma pharmacokinetics, Parkinson's disease patients, once daily for 14 days
Type: in vivo, human
assay_conditions: human, oral, 192 mg, Day 14, plasma, PD patients, read-out: AUC0-24 Mean
measure: AUC(0-t) (ng·h/mL)
Give a bare numeral; the unit ng·h/mL is implied.

Data request, read-out AUC(0-t), for Cc1ccc(C(=O)NNC(=O)c2c(C)cccc2Cl)cc1C#Cc1cnc2ccccc2c1 33800

###

measurement_notes: Plasma pharmacokinetics, 7 once-daily oral doses, healthy volunteers
Assay type: in vivo, human
assay_conditions: male, human, plasma, oral, 48 mg, Day 1, plasma, healthy volunteers; read-out: Cmax GM
measure: Cmax (ng/mL)
Give a bare numeral; the unit ng/mL is implied.

Data request, read-out Cmax, for Cc1ccc(C(=O)NNC(=O)c2c(C)cccc2Cl)cc1C#Cc1cnc2ccccc2c1 1330

###

measurement_notes: Plasma pharmacokinetics, Parkinson's disease patients, once daily for 14 days
Format: in vivo, human
assay_conditions: human, 18 mg, PD patients, read-out: AUC Over Dosing Interval Median
measure: AUC (ng·h/mL)
Give a bare numeral; the unit ng·h/mL is implied.

Data request, read-out AUC, for Cc1ccc(C(=O)NNC(=O)c2c(C)cccc2Cl)cc1C#Cc1cnc2ccccc2c1 4160

###

measurement_notes: Plasma pharmacokinetics, 7 once-daily oral doses, healthy volunteers
Format: in vivo, human
assay_conditions: male, human, plasma, oral, 48 mg, Day 1, plasma, healthy volunteers; read-out: Cmax Median
measure: Cmax (ng/mL)
Give a bare numeral; the unit ng/mL is implied.

Data request, read-out Cmax, for Cc1ccc(C(=O)NNC(=O)c2c(C)cccc2Cl)cc1C#Cc1cnc2ccccc2c1 1220

###

measurement_notes: Plasma pharmacokinetics, Parkinson's disease patients, once daily for 14 days
Type: in vivo, human
assay_conditions: human, oral, 192 mg, Day 14, plasma, PD patients
measure: Cmax (ng/mL)
Give a bare numeral; the unit ng/mL is implied.

Data request, read-out Cmax, for Cc1ccc(C(=O)NNC(=O)c2c(C)cccc2Cl)cc1C#Cc1cnc2ccccc2c1 3230

###

measurement_notes: Plasma pharmacokinetics, Parkinson's disease patients, once daily for 14 days
Format: in vivo, human
assay_conditions: human, oral, 24 mg, Day 1, plasma, PD patients, read-out: Tmax median
measure: Tmax (h)
Give a bare numeral; the unit h is implied.

Data request, read-out Tmax, for Cc1ccc(C(=O)NNC(=O)c2c(C)cccc2Cl)cc1C#Cc1cnc2ccccc2c1 4

###

measurement_notes: Plasma pharmacokinetics, Parkinson's disease patients, once daily for 14 days
Type: in vivo, human
assay_conditions: human, 384 mg, PD patients, read-out: AUC Over Dosing Interval Median
measure: AUC

Data request, read-out AUC, for Cc1ccc(C(=O)NNC(=O)c2c(C)cccc2Cl)cc1C#Cc1cnc2ccccc2c1 44500 ng·h/mL

###

measurement_notes: Plasma pharmacokinetics, Parkinson's disease patients, once daily for 14 days
Type: in vivo, human
assay_conditions: human, 24 mg, PD patients, read-out: AUC Over Dosing Interval Geo. Mean
measure: AUC (ng·h/mL)
Give a bare numeral; the unit ng·h/mL is implied.

Data request, read-out AUC, for Cc1ccc(C(=O)NNC(=O)c2c(C)cccc2Cl)cc1C#Cc1cnc2ccccc2c1 5250

###

measurement_notes: Plasma pharmacokinetics, 7 once-daily oral doses, healthy volunteers
Assay type: in vivo, human
assay_conditions: male, human, plasma, oral, 384 mg, Day 7, plasma, healthy volunteers; read-out: Tmax Median
measure: Tmax

Data request, read-out Tmax, for Cc1ccc(C(=O)NNC(=O)c2c(C)cccc2Cl)cc1C#Cc1cnc2ccccc2c1 3.5 h

###

measurement_notes: Plasma pharmacokinetics, 7 once-daily oral doses, healthy volunteers
Format: in vivo, human
assay_conditions: male, human, plasma, oral, 384 mg, Day 7, plasma, healthy volunteers; read-out: Cmax Min, Max
measure: Cmax

Data request, read-out Cmax, for Cc1ccc(C(=O)NNC(=O)c2c(C)cccc2Cl)cc1C#Cc1cnc2ccccc2c1 2870 to 17900 ng/mL
